# credit: the supplement of paper PMC7125110

Listed here: items and their measured self-cleavage kobs at 40 uM GlcN6P.
B1: glmS ribozyme (parent)
chain: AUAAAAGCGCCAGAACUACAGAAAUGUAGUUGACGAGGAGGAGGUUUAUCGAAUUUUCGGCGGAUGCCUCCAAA

variants of: B1; assay: self-cleavage kobs at 40 uM GlcN6P; higher = faster cleavage; RNA array; details: with glucosamine-6-phosphate
Variants at the floor of the assay were thinned out.

changes: C34A G40C U46C
self-cleavage kobs at 40 uM GlcN6P: < 1e-05 s⁻¹

q: Reported self-cleavage kobs at 40 uM GlcN6P for G38U U45G : what is it?
a: < 1e-05 s⁻¹

q: State the recorded self-cleavage kobs at 40 uM GlcN6P for this entry: G9C G59C
a: < 1e-05 s⁻¹

q: Field request: self-cleavage kobs at 40 uM GlcN6P | item: A12U U47A
a: 0.00189 s⁻¹
